Assay info: Clearance in Sprague-Dawley rat at 1 mg/kg, iv by LC-MS analysis
Format: ADME, organism-based
Experimental parameters: in vivo
Measured attribute: clearance (mL/min/kg)

{"Smiles text": "COc1cccc(Nc2cc(Nc3cccc(NC(=O)C4CC4)c3)ncn2)c1", "Unit abbrev": "mL/min/kg", "Result value": 69.8}

----------
Assay info: AUC(0 to t) in Sprague-Dawley rat at 1 mg/kg, iv by LC-MS analysis
Type: ADME, organism-based
Design: dose 1 mg/kg, route iv
Experimental parameters: in vivo
Measured attribute: AUC(0-t) (ng·h/mL)

{"Smiles text": "COc1cccc(Nc2cc(Nc3cccc(NC(=O)C4CC4)c3)ncn2)c1", "Measured attribute": "AUC(0-t)", "Result value": 239}

----------
System: A2780
Assay info: cells
Experimental parameters: Homo sapiens, A2780, 48 h
Description: Antiproliferative activity against human A2780 cells assessed as inhibition of cell growth incubated for 48 hrs by MTT assay
# Lookup of reported IC50 keyed by entry
Measured attribute: IC50 (nM)

{"Compound": "COc1cccc(Nc2cc(Nc3cccc(NC(=O)C4CC4)c3)ncn2)c1", "Measured attribute": "IC50", "Result value": 16}
{"Compound": "COc1cc2c(c(OC)c1OC)-c1ccc(OC)c(=O)cc1[C@@H](NC(C)=O)CC2 [COLCHICINE]", "Measured attribute": "IC50", "Result value": 20}
